All figures here come from patent US20190178896A1.

- Test system: osteoblasts from control and AIS patients
- Assay Text: cells
- Measurement Conditions: Homo sapiens, Osteoblast, read-out: Control EC50 (nM)
- Description: The targeted endogenous receptors are shown in parentheses. The impedance represented in y-axis as dziec was measured by the Cellkey™ system every 2 sec. Data are representative of impedance signature in osteoblasts from 12 individuals tested three times in duplicate for each group; A total of ten compounds were tested and the representative refraction index curves generated by each of these compounds in control and AIS osteoblasts are illustrated in FIGS. 10A-10J).
Where a name gives a salt, the structure may show the parent alone.
Value Type: EC50
The answer should read as a number with its unit following.

# count of solved cases: 4
Compound	Target Or Test System	Result
COc1ccc2[nH]cc(CCNC(C)=O)c2c1 [Melatonin, melatonin]	osteoblasts from control and AIS patients	33.4 nM
Brc1c(NC2=NCCN2)ccc2nccnc12 [UK14304]	osteoblasts from control and AIS patients	16.5 nM
c1ccc(N2CCN(CCCOc3ccc4c(c3)OCO4)CC2)cc1 [BP554, maleate]	osteoblasts from control and AIS patients	22.3 nM
CCNC(=O)[C@H]1O[C@@H](n2cnc3c(N)ncnc32)[C@H](O)[C@@H]1O [NECA]	osteoblasts from control and AIS patients	20.9 nM

Pending compound:
Please look at this compound and report its EC50: O=C(NC1CCCCC1)c1cn(CCN2CCOCC2)c2cc(Cl)ccc2c1=O [CB65] 13.9 nM
